Known Ratio IC50 of a selection of compounds
measurement_notes: Selectivity index, ratio of IC50 for ovine COX-1 to IC50 for human recombinant COX-2

compound="CS(=O)(=O)c1ccc(C2=NN(c3ccc(S(N)(=O)=O)cc3)C(c3ccc(Cl)cc3)C2)cc1 (stereo unspecified)" endpoint_name="Ratio IC50" result=3.11
compound="CS(=O)(=O)c1ccc(C2=NN(c3ccc(C(=O)O)cc3)C(c3cccs3)C2)cc1 (stereo unspecified)" endpoint_name="Ratio IC50" result=4.11
compound="COc1cc(C2CC(c3ccc(S(C)(=O)=O)cc3)=NN2c2ccc(S(N)(=O)=O)cc2)cc(OC)c1OC (stereo unspecified)" endpoint_name="Ratio IC50" result=2.63
compound="COc1ccc(C2CC(c3ccc(S(C)(=O)=O)cc3)=NN2c2ccc(S(N)(=O)=O)cc2)cc1 (stereo unspecified)" endpoint_name="Ratio IC50" result=3.1
compound="COc1cccc(C2CC(c3ccc(S(C)(=O)=O)cc3)=NN2c2ccc(S(N)(=O)=O)cc2)c1 (stereo unspecified)" endpoint_name="Ratio IC50" result=4.11

Now for a further compound.
Query: Need Ratio IC50, item COc1ccc(C2CC(c3ccc(S(C)(=O)=O)cc3)=NN2c2ccc(C(=O)O)cc2)cc1 (stereo unspecified)
Result: 3.11
